target-under-test: STK33 (Homo sapiens, UniProt Q9BYT3)
Sequence (Q9BYT3 whole entry): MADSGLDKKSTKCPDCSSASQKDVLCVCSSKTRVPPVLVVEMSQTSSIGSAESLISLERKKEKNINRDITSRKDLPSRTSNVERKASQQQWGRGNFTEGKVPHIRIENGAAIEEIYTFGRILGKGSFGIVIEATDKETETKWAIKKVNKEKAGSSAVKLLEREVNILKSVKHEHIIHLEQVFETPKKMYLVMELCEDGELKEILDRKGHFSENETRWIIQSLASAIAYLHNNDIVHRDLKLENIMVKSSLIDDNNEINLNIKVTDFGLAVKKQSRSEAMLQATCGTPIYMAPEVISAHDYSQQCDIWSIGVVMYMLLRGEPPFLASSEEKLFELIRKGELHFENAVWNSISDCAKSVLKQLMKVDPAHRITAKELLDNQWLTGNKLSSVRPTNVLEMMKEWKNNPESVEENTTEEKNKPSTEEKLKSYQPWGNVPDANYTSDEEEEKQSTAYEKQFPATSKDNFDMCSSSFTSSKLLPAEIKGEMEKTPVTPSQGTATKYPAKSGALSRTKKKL
Field: pKd. Provide a value for each of the compounds that follow.
Give bare numbers, as −log10 of the molar value.

Consider the following items and state reported pKd for each.
1. CNC(=O)C1CCN(C2CCN(C(=O)c3ccc4[nH]nc(C#Cc5ccccc5-c5ccccc5)c4c3)C2)CC1 (centres unmarked)
2. O=C(c1ccc2[nH]nc(C#Cc3ccccc3-c3ccccc3)c2c1)N1CC2(CCCNC2)C1

[A]
[10.00, 10.70]

Consider the following items and state reported pKd for each.
1. CN(C)[C@H]1CCN(C(=O)c2ccc3[nH]nc(C#Cc4ccccc4-c4ccccc4)c3c2)C1
2. CN(C)C1CCN(C(=O)c2ccc3[nH]nc(C#Cc4ccc(-c5ccccc5)cc4)c3c2)C1 (centres unmarked)
3. CN(C)C1CCN(C(=O)c2ccc3[nH]nc(C#Cc4cccc(-c5ccccc5)c4)c3c2)C1 (centres unmarked)

[A]
1. 8.72
2. 7.75
3. 8.00

----------
target-under-test: STK33 (Homo sapiens, UniProt Q9BYT3)
method-summary: NanoBRET target engagement intracellular kinase assay
recorded-conditions: HEK293 cells, 2 hours incubation
Exam item: assign t to entries whose IC50 is below 200 nM and f to entries at or above 200 nM. Note that a value of exactly 200 nM receives f.

The following compounds have reported results that may help.
- compound: "O=C(c1ccc2[nH]nc(C#Cc3ccccc3-c3ccccc3)c2c1)N1CCC2(CCCCN2)C1 (stereo not drawn)"
  qualitative-label: "t"
- compound: "CN(C)C1CCN(C(=O)c2ccc3[nH]nc(C#Cc4ccc(-c5ccccc5)cc4)c3c2)C1 (stereo not drawn)"
  qualitative-label: "f"
- compound: "O=C(c1ccc2[nH]nc(C#Cc3ccccc3-c3ccccc3)c2c1)N1CCC2(CCNCC2)C1"
  qualitative-label: "f"

[Q] hey, is IC50 for O=C(c1ccc2[nH]nc(C#Cc3ccccc3-c3ccccc3)c2c1)N1CC2(CCCCN2)C1 lower than 200 nM or not?
[A] f

[Q] hey, is IC50 for O=C(c1ccc2[nH]nc(C#Cc3ccccc3-c3ccccc3)c2c1)N1CC2(CCNCC2)C1 lower than 200 nM or not?
[A] t

[Q] hey, is IC50 for O=C(c1ccc2[nH]nc(C#Cc3ccccc3-c3ccccc3)c2c1)N1CCC2(CCCNC2)C1 (stereo not drawn) lower than 200 nM or not?
[A] f

----------
target-under-test: CLK4 (Homo sapiens)
Sequence (Q9HAZ1 whole entry): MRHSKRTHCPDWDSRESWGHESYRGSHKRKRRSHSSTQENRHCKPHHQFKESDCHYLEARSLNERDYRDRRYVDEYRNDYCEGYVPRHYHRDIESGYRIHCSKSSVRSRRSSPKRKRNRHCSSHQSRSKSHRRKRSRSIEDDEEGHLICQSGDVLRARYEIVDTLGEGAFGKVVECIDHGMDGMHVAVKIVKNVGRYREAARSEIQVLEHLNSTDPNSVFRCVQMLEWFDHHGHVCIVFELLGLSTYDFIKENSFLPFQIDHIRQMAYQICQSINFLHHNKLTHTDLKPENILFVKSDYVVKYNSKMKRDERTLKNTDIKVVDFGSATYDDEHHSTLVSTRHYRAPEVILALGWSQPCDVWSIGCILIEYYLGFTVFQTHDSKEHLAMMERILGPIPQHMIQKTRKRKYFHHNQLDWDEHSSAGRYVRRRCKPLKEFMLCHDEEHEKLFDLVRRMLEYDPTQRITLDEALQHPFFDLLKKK
method-summary: NanoBRET target engagement intracellular kinase assay
recorded-conditions: HEK293 cells, 2 hours incubation
Description: NanoBRET Target Engagement intracellular kinase assay. HEK293T cells were cultured in […] The cell line underwent authentication by short tandem repeat (STR) profiling at Cytogenetics and Cell Authentication Core (CCAC) at MD Anderson Cancer Center. […] 0.4 nM at a fixed tracer concentration. Staurosporine was measured in parallel as a positive control. […]
Field: pIC50. Provide a value for each of the compounds that follow.
Give bare numbers, as −log10 of the molar value.

Example results:
- compound: "CNC(=O)C1CCN(C2CCN(C(=O)c3ccc4[nH]nc(C#Cc5ccccc5-c5ccccc5)c4c3)C2)CC1 (centres unmarked)"
  result-number: 6.26
- compound: "CN(C)[C@H]1CCN(C(=O)c2ccc3[nH]nc(C#Cc4ccccc4-c4ccccc4)c3c2)C1"
  result-number: 5.23

Consider the following items and state reported pIC50 for each.
1. O=C(c1ccc2[nH]nc(C#Cc3ccccc3-c3ccccc3)c2c1)N1CC2(CCCNC2)C1
2. CN(C)[C@@H]1CCN(C(=O)c2ccc3[nH]nc(C#Cc4ccccc4-c4ccccc4)c3c2)C1

[A]
1. 7.07
2. 6.73

[Q] Which measured pIC50 belongs to CNC(=O)CCC1CCN(C(=O)C2CCN(C3CCN(C(=O)c4ccc5[nH]nc(C#Cc6ccccc6-c6ccccc6)c5c4)C3)CC2)CC1 (centres unmarked) , tested on CLK4 (Homo sapiens)?
[A] 5.41

----------
Field: selectivity toward STK33 compared to CLK1, CLK2, CLK4, and RET. Provide a value for each of the compounds that follow.
target-under-test: UniProt Q9BYT3
method-summary: NanoBRET target engagement intracellular kinase assay
Format: cell-based
Set-up: host or cells: HEK293 (HEK293T cultured)

- compound: "CN(C)[C@@H]1CCN(C(=O)c2ccc3[nH]nc(C#Cc4ccccc4-c4ccccc4)c3c2)C1"
  result: "> 10 fold"

Consider the following items and state reported selectivity toward STK33 compared to CLK1, CLK2, CLK4, and RET for each.
1. CNC(=O)CCC1CCN(C(=O)C2CCN(C3CCN(C(=O)c4ccc5[nH]nc(C#Cc6ccccc6-c6ccccc6)c5c4)C3)CC2)CC1 (stereo not shown)
2. O=C(c1ccc2[nH]nc(C#Cc3ccccc3-c3ccccc3)c2c1)N1CC2(CCCNC2)C1
3. CNC(=O)C1CCN(C2CCN(C(=O)c3ccc4[nH]nc(C#Cc5ccccc5-c5ccccc5)c4c3)C2)CC1 (stereo not shown)

[A]
1: > 10 fold; 2: > 9 fold; 3: > 10 fold

----------
target-under-test: CLK2 (Homo sapiens)
Sequence (P49760 whole entry): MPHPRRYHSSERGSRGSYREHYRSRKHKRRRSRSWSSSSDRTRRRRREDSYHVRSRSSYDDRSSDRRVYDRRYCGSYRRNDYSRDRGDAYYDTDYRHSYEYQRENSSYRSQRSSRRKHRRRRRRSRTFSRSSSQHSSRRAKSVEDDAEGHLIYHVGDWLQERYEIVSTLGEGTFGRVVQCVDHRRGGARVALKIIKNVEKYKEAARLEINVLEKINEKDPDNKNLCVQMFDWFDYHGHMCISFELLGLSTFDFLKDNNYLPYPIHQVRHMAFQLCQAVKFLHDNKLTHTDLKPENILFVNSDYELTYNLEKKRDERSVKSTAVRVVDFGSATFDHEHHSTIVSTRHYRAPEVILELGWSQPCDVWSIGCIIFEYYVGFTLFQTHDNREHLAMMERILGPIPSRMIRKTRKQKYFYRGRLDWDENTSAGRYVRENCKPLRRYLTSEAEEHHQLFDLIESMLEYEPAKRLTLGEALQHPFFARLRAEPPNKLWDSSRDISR
method-summary: NanoBRET target engagement intracellular kinase assay
recorded-conditions: HEK293 cells, 2 hours incubation
measurement-label: pIC50
Give bare numbers, as −log10 of the molar value.

Example results:
- molecule: "CN(C)[C@H]1CCN(C(=O)c2ccc3[nH]nc(C#Cc4ccccc4-c4ccccc4)c3c2)C1 [CDD-2212]"
  target-under-test: "CLK2 (Homo sapiens)"
  pIC50: 5.81
- molecule: "CNC(=O)C1CCN(C2CCN(C(=O)c3ccc4[nH]nc(C#Cc5ccccc5-c5ccccc5)c4c3)C2)CC1 (centres unmarked) [CDD-2110]"
  target-under-test: "CLK2 (Homo sapiens)"
  pIC50: 6.04
- molecule: "CN(C)[C@@H]1CCN(C(=O)c2ccc3[nH]nc(C#Cc4ccccc4-c4ccccc4)c3c2)C1 [CDD-2211]"
  target-under-test: "CLK2 (Homo sapiens)"
  pIC50: 7.32
- molecule: "CNC(=O)CCC1CCN(C(=O)C2CCN(C3CCN(C(=O)c4ccc5[nH]nc(C#Cc6ccccc6-c6ccccc6)c5c4)C3)CC2)CC1 (centres unmarked) [CDD-3348]"
  target-under-test: "CLK2 (Homo sapiens)"
  pIC50: 5.60

Please turn your attention to the following entry.
[Q] Which pIC50 is reported for this molecule? O=C(c1ccc2[nH]nc(C#Cc3ccccc3-c3ccccc3)c2c1)N1CC2(CCCNC2)C1 [CDD-2807]
[A] 7.00

----------
Field: IC50. Provide a value for each of the compounds that follow.
target-under-test: CLK1 (Homo sapiens, UniProt P49759)
Sequence (P49759 whole entry): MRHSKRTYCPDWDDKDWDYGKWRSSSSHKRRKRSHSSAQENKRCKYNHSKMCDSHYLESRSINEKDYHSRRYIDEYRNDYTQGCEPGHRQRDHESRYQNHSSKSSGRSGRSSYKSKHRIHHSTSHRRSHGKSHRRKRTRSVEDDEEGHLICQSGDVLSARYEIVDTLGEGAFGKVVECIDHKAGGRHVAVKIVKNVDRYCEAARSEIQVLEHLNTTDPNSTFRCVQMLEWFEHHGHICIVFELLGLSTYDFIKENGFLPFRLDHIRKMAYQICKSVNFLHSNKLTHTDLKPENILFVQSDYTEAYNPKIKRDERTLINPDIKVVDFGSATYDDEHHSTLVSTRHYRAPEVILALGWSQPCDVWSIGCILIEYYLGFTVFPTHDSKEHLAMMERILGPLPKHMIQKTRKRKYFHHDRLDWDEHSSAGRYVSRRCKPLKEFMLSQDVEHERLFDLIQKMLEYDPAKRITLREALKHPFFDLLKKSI
method-summary: NanoBRET target engagement intracellular kinase assay
recorded-conditions: HEK293 cells, 2 hours incubation
Give bare numbers, in nM.

- compound: "CNC(=O)C1CCN(C2CCN(C(=O)c3ccc4[nH]nc(C#Cc5ccccc5-c5ccccc5)c4c3)C2)CC1 (centres unmarked)"
  IC50, nM: 1210
- compound: "CN(C)[C@H]1CCN(C(=O)c2ccc3[nH]nc(C#Cc4ccccc4-c4ccccc4)c3c2)C1"
  IC50, nM: 3230
- compound: "CN(C)[C@@H]1CCN(C(=O)c2ccc3[nH]nc(C#Cc4ccccc4-c4ccccc4)c3c2)C1"
  IC50, nM: 115
- compound: "CNC(=O)CCC1CCN(C(=O)C2CCN(C3CCN(C(=O)c4ccc5[nH]nc(C#Cc6ccccc6-c6ccccc6)c5c4)C3)CC2)CC1 (centres unmarked)"
  IC50, nM: 6730

Please turn your attention to the following entry.
[Q] Which IC50 is reported for this compound? O=C(c1ccc2[nH]nc(C#Cc3ccccc3-c3ccccc3)c2c1)N1CC2(CCCNC2)C1
[A] 116

----------
target-under-test: UniProt:P49760
method-summary: NanoBRET target engagement intracellular kinase assay
Type: cell-based
Parameters: host or cells: HEK293 (HEK293T cultured)
recorded-conditions: selectivity vs STK33
Field: Fold NanoBRET IC50 CLK2 over STK33 (in parentheses). Provide a value for each of the compounds that follow.
The answer should read as a number with its unit following.

Example results:
- compound: "CN(C)[C@H]1CCN(C(=O)c2ccc3[nH]nc(C#Cc4ccccc4-c4ccccc4)c3c2)C1"
  result: "1.5 X"
- compound: "O=C(c1ccc2[nH]nc(C#Cc3ccccc3-c3ccccc3)c2c1)N1CC2(CCCNC2)C1"
  result: "11 X"
- compound: "CN(C)[C@@H]1CCN(C(=O)c2ccc3[nH]nc(C#Cc4ccccc4-c4ccccc4)c3c2)C1"
  result: "10 X"
- compound: "CNC(=O)C1CCN(C2CCN(C(=O)c3ccc4[nH]nc(C#Cc5ccccc5-c5ccccc5)c4c3)C2)CC1 (centres unmarked)"
  result: "24 X"

Please turn your attention to the following entry.
[Q] Which Fold NanoBRET IC50 CLK2 over STK33 (in parentheses) is reported for this compound? CNC(=O)CCC1CCN(C(=O)C2CCN(C3CCN(C(=O)c4ccc5[nH]nc(C#Cc6ccccc6-c6ccccc6)c5c4)C3)CC2)CC1 (centres unmarked)
[A] 15 X
